The entries below are paired with their reported composite z-score.
Test system: Neuregulin-1 EGF-like domain
assay name: small molecules binding NRG1 EGF domain – biochemical, small-molecule microarray, 635 nm fluorescence, primary screen (AID 1081);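 also: binding of the protein to compounds printed on small-molecule microarray slides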
recorded conditions: higher = more signal
No unit in the answer, only the number.

Worked cases, composite z-score given:
| compound | meas value |
| --- | --- |
| COCCOC(=O)N1C(=O)[C@@]2(c3cc(C#CCC(C(=O)OC)C(=O)OC)ccc31)[C@H](c1ccc(OCCO)cc1)N1[C@H](c3ccccc3)[C@H](c3ccccc3)OC(=O)[C@H]1[C@@H]2C(=O)NC[C@H](O)c1ccccc1 | 1.28 |
| O=C1C2C=CC(C(O)C3CC=CCC3)N(n3cnnc3)C2C(=O)N1Cc1ccccc1 (stereo not given) | 0.518 |
| CC1CC/C=C\[C@H]2OC34C=CCN(CCN5CCOCC5)C(=O)[C@H]3N(CCCCCO)C(=O)[C@@H]4C2C(=O)O1 (stereo not given in full) | -0.358 |

Input line: // lookup composite z-score | system=Neuregulin-1 EGF-like domain | key= O=C1OCC=C[C@H]2OC34C=CCN(Cc5ccccc5)C(=O)[C@H]3N(CCCO)C(=O)[C@@H]4[C@@H]12 (stereo not given in full)
Output line: 1.42

Input line: Similarly, O=C(NCC(O)CO)[C@]1(CCS(=O)(=O)c2ccccc2)N=C(c2ccc(OCCCO)cc2)O[C@@H]1c1ccccc1 (stereo not given in full) ?
Output line: 1.3

Input line: Also `CC[C@@H]1C=C(C(=O)O)[C@H](c2ccc(C(C)C)cc2)N1S(=O)(=O)c1ccc(C)cc1` , if possible.
Output line: 0.908

Input line: What do we get for `CO[C@H]1O[C@H](CO)[C@@H](OC(=O)Nc2ccc3c(c2)OCO3)[C@H](OC(=O)Nc2ccc3c(c2)OCO3)[C@H]1OC(=O)Nc1ccc2c(c1)OCO2` ?
Output line: 1.25

Input line: What do you have for CN1C(=O)C2C(C1=O)C1C=C(c3ccc(CO)cc3)C2C(C2CC2)N1Cc1sc2ccccc2c1Cl (stereo not given) ?
Output line: 0.866

Input line: Likewise for `COC(=O)c1c(CC[C@@H](CO)NC(=O)Nc2ncn[nH]2)oc(C(=O)Cc2ccccc2)c1C(=O)OC` ?
Output line: 0.778

Input line: Now the compound `COC(=O)[C@@]1(Cc2ccccc2)[C@H]2c3cc(C(=O)N(C)C)n(Cc4ccccc4)c3C[C@H]2CN1C(=O)c1ccccc1`
Output line: 1.26
